- tested-system: Bombyx mori EcR (VP16 fusion, CVBE switch construct) (Bombyx mori, UniProt P49881)
- Sequence (P49881 86-606): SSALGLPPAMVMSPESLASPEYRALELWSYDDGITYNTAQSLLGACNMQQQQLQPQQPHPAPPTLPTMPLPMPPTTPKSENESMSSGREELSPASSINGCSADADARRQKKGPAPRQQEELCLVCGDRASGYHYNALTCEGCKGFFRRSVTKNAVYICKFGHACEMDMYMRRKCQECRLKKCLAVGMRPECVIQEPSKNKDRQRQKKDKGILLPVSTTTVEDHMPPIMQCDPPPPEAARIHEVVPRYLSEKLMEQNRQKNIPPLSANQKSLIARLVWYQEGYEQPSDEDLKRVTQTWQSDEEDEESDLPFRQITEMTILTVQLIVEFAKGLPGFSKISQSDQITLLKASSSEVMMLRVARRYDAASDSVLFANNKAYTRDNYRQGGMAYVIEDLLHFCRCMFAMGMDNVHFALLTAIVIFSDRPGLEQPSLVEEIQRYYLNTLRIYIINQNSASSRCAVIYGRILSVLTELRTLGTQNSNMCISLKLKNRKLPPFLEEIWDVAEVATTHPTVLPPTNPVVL
- Sequence (P19793 1-462 partner): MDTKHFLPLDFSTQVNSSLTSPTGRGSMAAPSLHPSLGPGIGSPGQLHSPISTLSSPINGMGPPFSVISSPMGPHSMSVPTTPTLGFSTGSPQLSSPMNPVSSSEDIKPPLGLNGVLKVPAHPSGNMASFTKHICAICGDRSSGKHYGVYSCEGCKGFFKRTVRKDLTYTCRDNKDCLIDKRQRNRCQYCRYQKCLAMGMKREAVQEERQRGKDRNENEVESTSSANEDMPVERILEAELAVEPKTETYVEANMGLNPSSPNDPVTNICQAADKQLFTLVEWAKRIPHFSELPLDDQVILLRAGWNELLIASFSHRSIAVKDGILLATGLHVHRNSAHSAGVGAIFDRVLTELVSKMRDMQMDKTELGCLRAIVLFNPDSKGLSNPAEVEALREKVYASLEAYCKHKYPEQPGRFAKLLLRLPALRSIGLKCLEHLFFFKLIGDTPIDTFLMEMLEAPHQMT
- experiment: Z3 Assay (HEK-293 cells with CVBE and 6XEcRE LacZ, β-galactosidase reporter)
- test-parameters: 33 uM ligand; ligand treated / DMSO treated cells; average of two wells
- Description: Dr. F. Gage provided a population of stably transformed cells containing CVBE and 6XEcRE as described in Suhr, S. T., Gil, E. B., Senut M. C., Gage, F. H. (1998) Proc. Natl. Acad. Sci. USA 95, 7999-804. […] Dilution cloning was used to isolate individual clones. […] Individual clones were evaluated based on their response in the presence and absence of test ligands. […]
quantity-measured: Fold Induction, Z3 Assay, 33 uM

{"columns": ["molecule", "tested-system", "quantity-measured", "observed-measurement"],
 "data": [
  ["CCc1c(OC)cccc1C(=O)NN(C(=O)c1cc(F)c(Cl)cc1Cl)C(C)(C)C", "Bombyx mori EcR (VP16 fusion, CVBE switch construct) (Bombyx mori, UniProt P49881)", "Fold Induction, Z3 Assay, 33 uM", 404],
  ["Cc1cc(C)cc(C(=O)N(NC(=O)c2cc3c(cc2Cl)OCO3)C(C)(C)C)c1", "Bombyx mori EcR (VP16 fusion, CVBE switch construct) (Bombyx mori, UniProt P49881)", "Fold Induction, Z3 Assay, 33 uM", 268],
  ["Cc1c(Cl)cccc1C(=O)NN(C(=O)c1cccc(Cl)c1)C(C)(C)C", "Bombyx mori EcR (VP16 fusion, CVBE switch construct) (Bombyx mori, UniProt P49881)", "Fold Induction, Z3 Assay, 33 uM", 1],
  ["CCc1c(OC)cccc1C(=O)NN(C(=O)c1cc(C)cc(C)c1)C(C)(C)C=NNC(N)=O", "Bombyx mori EcR (VP16 fusion, CVBE switch construct) (Bombyx mori, UniProt P49881)", "Fold Induction, Z3 Assay, 33 uM", 666],
  ["Cc1cc(C)cc(C(=O)N(NC(=O)c2ccc3c(c2)OC(C)CO3)C(C)(C)C)c1 (racemic)", "Bombyx mori EcR (VP16 fusion, CVBE switch construct) (Bombyx mori, UniProt P49881)", "Fold Induction, Z3 Assay, 33 uM", 328],
  ["CCc1c(C(=O)NN(C(=O)c2cc(F)c(Cl)cc2Cl)C(C)(C)C)ccc2c1OCCO2", "Bombyx mori EcR (VP16 fusion, CVBE switch construct) (Bombyx mori, UniProt P49881)", "Fold Induction, Z3 Assay, 33 uM", 498],
  ["CC(=O)c1ccc(C(=O)NN(C(=O)c2cc(C(=O)O)cc(C(=O)O)c2)C(C)(C)C)cc1", "Bombyx mori EcR (VP16 fusion, CVBE switch construct) (Bombyx mori, UniProt P49881)", "Fold Induction, Z3 Assay, 33 uM", 1],
  ["COc1cccc(C(=O)NN(C(=O)c2cc(C)cc(C)c2)C(C)(C)C)c1I", "Bombyx mori EcR (VP16 fusion, CVBE switch construct) (Bombyx mori, UniProt P49881)", "Fold Induction, Z3 Assay, 33 uM", 1515]
]}

* * *

- tested-system: GAL4 DBD (1-147)-CfEcR(DEF)/VP16AD-βRXREF-LmUSPEF (Choristoneura fumiferana)
- experiment: cell-based
- test-parameters: maximum fold induction at any concentration relative to that of GS-E ligand; CHO 27-63 cells
With a cut-off of 0.9, any 27-63 assay Rel Max FI strictly below it is called class 1; any 27-63 assay Rel Max FI meeting it or above is called class 0.

{"columns": ["compound", "category-label"],
 "data": [
  ["CCc1c(OC)cccc1C(=O)NN(C(=O)c1cc(C)cc(C)c1)C(C)(C)C=O [RG-115407]", "class 0"],
  ["CCc1c(C(=O)NN(C(=O)c2ccc(F)c(C(F)(F)F)c2)C(C)(C)C)ccc2c1OCCO2 [RG-115280]", "class 1"],
  ["COc1cccc(C(=O)NN(C(=O)c2cc(Cl)c(F)c(Cl)c2)C(C)(C)C)c1C [RG-101382]", "class 0"],
  ["CCc1c(OC)cccc1C(=O)NN(C(=O)c1cc(C)ccc1[N+](=O)[O-])C(C)(C)C [RG-115162]", "class 1"],
  ["COc1ccc(C(=O)NN(C(=O)c2ccc(F)cc2Cl)C(C)(C)C)cc1 [RG-101057]", "class 1"],
  ["COc1ccc(Cl)cc1C(=O)N(NC(=O)c1ccc2c(c1C)CCCO2)C(C)(C)C [RG-115551]", "class 1"],
  ["Cc1cc(C)cc(C(=O)N(NC(=O)c2cccc(OC(F)(F)F)c2C)C(C)(C)C)c1 [RG-101692]", "class 0"]
]}

* * *

Entries annotated with measured fold induction at 33 µM
- tested-system: GAL4 DBD-CfEcR(DEF)/VP16AD-MmRXRE (Choristoneura fumiferana)
- experiment: 13B3 Assay (CHO stable cell line, luciferase reporter)
- test-parameters: read-out: Fold Induction, 13B3 Assay, 33 uM
quantity-measured: fold induction at 33 µM

{"columns": ["compound", "observed-measurement"],
 "data": [
  ["COc1cc(C(=O)N(NC(=O)c2ccc3c(c2C)OCCO3)C(C)(C)C)cc(OC)c1O", 2550],
  ["COc1cc(C(=O)N(NC(=O)c2ccc3c(c2C)OCCO3)C(C)(C)C)cc(OC)c1C", 636],
  ["COc1cccc(C(=O)NN(C(=O)c2cc(C)cc(C)c2)C(C)(C)C)c1CO", 1090],
  ["CCc1c(OC)cccc1C(=O)NN(C(=O)c1ccc2ncn(C(c3ccccc3)(c3ccccc3)c3ccccc3)c2c1)C(C)(C)C", 2],
  ["Cc1c(C(=O)NN(C(=O)c2cc(F)c(F)c(F)c2)C(C)(C)C)ccc2c1CCCO2", 865],
  ["Cc1cc(C)cc(C(=O)N(NC(=O)c2ccc3c(c2C)OCCO3)C(C)(C)C)c1", 814],
  ["CCc1c(OC)cccc1C(=O)NN(C(=O)c1cc(C)cc(C)c1)C(C)(C)C=NO", 3740],
  ["COc1cc(C(=O)N(NC(=O)c2ccc3c(c2C)OCCO3)C(C)(C)C#N)cc(OC)c1C", 2410],
  ["CCc1c(C(=O)NN(C(=O)c2cc(C)cc(Cl)c2)C(C)(C)C)ccc2c1OCCO2", 613],
  ["CCc1c(OC)cccc1C(=O)NN(C(=O)c1ccc2nc[nH]c2c1)C(C)(C)C", 1],
  ["CCC(N(NC(=O)c1cccc(C)c1C)C(=O)c1cc(C)cc(C)c1)C(C)(C)C (centres unmarked)", 95],
  ["CCc1c(OC)cccc1C(=O)NN(C(=O)c1cc(C)cc(C)c1)C(C)(C)C(=O)O", 1],
  ["CCc1ccc(C(=O)NN(C(=O)c2cc(C)cc(C)c2)C(C)(C)C)c(F)c1", 718],
  ["CC(C)(C)N(NC(=O)c1ccc(Cl)cc1)C(=O)c1ccccc1", 187],
  ["CCc1c(OC)cccc1C(=O)NN(C(=O)c1cc(C)cc(C)c1)C(C)(C)COC", 3150],
  ["C=CCOCc1c(OC)cccc1C(=O)NN(C(=O)c1cc(C)cc(C)c1)C(C)(C)C", 301],
  ["COc1cccc(C(=O)NN(C(=O)c2cc(C)cc(C)c2)C(C)(C)C)c1COC(C)=O", 8]
]}
